Tested on: SN12C renal
Experiment: NCI-60 one-dose screen, 48 h
Particulars: 10 µM unless noted
About 83,000 compounds went through this panel and 20% of them were active in at least one assay; those are over-represented in the sample as a whole. Active and inactive are the calls of the source. The calls were made as follows: active = growth percent below 10; inactive = the rest.
Labels: Y = active, N = inactive

Compound: COc1cc(C(C)c2ccc3c(ccn3C)c2)cc(OC)c1OC (stereo unspecified)
Answer label: N
//
Compound: N#Cc1ccc(Oc2ccc3ccc(=O)oc3c2)cc1
Answer label: N
//
Compound: COc1ccc2nc(-c3ccc(Cl)cc3)cc(-c3nnc(SC/C(=N/O)c4ccccc4)o3)c2c1
Answer label: N
//
Compound: C#C[C@@]1(O)[C@@H](CO)O[C@@H](n2cc(I)c3c(N)ncnc32)[C@@H]1O
Answer label: Y
//
Compound: S=C(Nc1ccccc1)c1ccccn1
Answer label: N
//
Compound: c1ccc(-c2n(Cc3ccc4ccccc4n3)cc[n+]2Cc2ccc3ccccc3c2)cc1
Answer label: Y
//
Compound: O=C1Nc2ccccc2C12C=C(c1ccccc1)Nc1c2c(-c2ccccc2)nn1-c1ccccc1 (stereo unspecified)
Answer label: N
//
Compound: O=C(/C(=C/c1ccc([N+](=O)[O-])cc1)SCc1ccc(F)cc1)c1ccc(Cl)cc1
Answer label: N
//
Compound: Cc1cnc(SCc2ccc(Cl)cc2Cl)nc1Nc1ccc(Cl)c(Cl)c1
Answer label: N
//
Compound: COc1ccc(-c2cs/c(=N\N=C\c3ccc(O)cc3O)n2/N=C/c2ccc(O)cc2O)cc1
Answer label: Y
//
Compound: O=[N+]([O-])c1ccc(Oc2ccc(-c3ccccc3)cc2)cc1
Answer label: N
//
Compound: COc1ccc(C(=S)c2cc(OC)c(OC)c(OC)c2)cc1OC(=O)CCl
Answer label: N
//
Compound: CC(=O)c1cnc(-c2ccccc2)nc1CBr
Answer label: N
//
Compound: CCCCCCCCCCCCCC1=NCC[N+]1(CCO)Cc1ccccc1 (stereo unspecified)
Answer label: Y
//
Compound: O=C(/C(=C/c1ccc([N+](=O)[O-])cc1)SCc1ccccc1)c1ccc(Cl)cc1
Answer label: Y
//
Compound: NC(=N\N=C\c1ccccc1O)/C(N)=N/N=C/c1ccccc1O
Answer label: N
//
Compound: Cc1cc(Cl)cc(CN(Cc2ccccc2)Cc2c(O)ccc3ccccc23)c1O
Answer label: N
//
Compound: Sc1cccc2cccnc12
Answer label: N
//
Compound: O=C(CCc1nnco1)c1nc2ccc([N+](=O)[O-])cc2[nH]1
Answer label: N
//
Compound: CN(C)C1=NCCN1
Answer label: N
//
Compound: C=C(C)[C@@H]1CC[C@]2(C(=O)N3CCN(C)CC3)CC[C@]3(C)[C@H](CC[C@@H]4[C@@]5(C)C/C(=C/c6ccco6)C(=O)C(C)(C)[C@@H]5CC[C@]43C)[C@@H]12
Answer label: N
//
Compound: CC(C)NS(=O)(=O)c1cccc(-c2ccc3c(=O)n(CCCN)c4c(c3c2)C(=O)c2ccccc2-4)c1
Answer label: N
//
Compound: NC(N)=NC(N)=Nc1cc2ccccc2c2ccccc12
Answer label: N
//
Compound: O=C1CCC23OC(c4ccccc4N12)C(O)C(O)C3O (stereo unspecified)
Answer label: N
//
Compound: Cc1ccc(SC2c3ccc(C)cc3Oc3nc(N)c(C#N)c(N)c32)cc1 (stereo unspecified)
Answer label: N
//
Compound: [2H]c1cc2c(c([2H])c1F)/C(=C/c1[nH]c(C)c(C(=O)NCCN(CC)CC)c1C)C(=O)N2
Answer label: N
